TEST_METHOD_NOTES: clinical
CONDITION: human, in vivo, po, 30 mg
TEST_READOUT: half-life
Provide the measurement as a number trailed by its unit.

Ask: Fill in: half-life of CC(C)(C(=O)NCC(F)(F)C(F)(F)F)C(=O)N[C@@H]1C(=O)Nc2ccccc2-c2ccccc21 [RO4929097] is ___
Reply: 20.7 h

###

TEST_METHOD_NOTES: clinical
CONDITION: human, in vivo, po, 90 mg
TEST_READOUT: Cmax
Enter the number, and then the unit.

Ask: Name the reported Cmax value associated with the compound CC(C)(C(=O)NCC(F)(F)C(F)(F)F)C(=O)N[C@@H]1C(=O)Nc2ccccc2-c2ccccc21
Reply: 2080 ng/mL

###

TEST_METHOD_NOTES: clinical
CONDITION: human, in vivo, po, 20 mg
TEST_READOUT: AUC(0-t) (ng·h/mL)
Answer format: numeric, ng·h/mL implied, no suffix.

Ask: Any idea what its AUC(0-t) is? The compound is CC(C)(C(=O)NCC(F)(F)C(F)(F)F)C(=O)N[C@@H]1C(=O)Nc2ccccc2-c2ccccc21
Reply: 4550

###

TEST_METHOD_NOTES: clinical
CONDITION: human, in vivo, po, 90 mg
TEST_READOUT: half-life (min)
Give just the number in min; leave the unit off.

Ask: # half-life lookup, item CC(C)(C(=O)NCC(F)(F)C(F)(F)F)C(=O)N[C@@H]1C(=O)Nc2ccccc2-c2ccccc21
Reply: 816

###

TEST_METHOD_NOTES: clinical
CONDITION: human, in vivo, po, 20 mg
TEST_READOUT: Cmax

Ask: Entry CC(C)(C(=O)NCC(F)(F)C(F)(F)F)C(=O)N[C@@H]1C(=O)Nc2ccccc2-c2ccccc21 has what Cmax?
Reply: 266 ng/mL

###

TEST_METHOD_NOTES: clinical
CONDITION: human, in vivo, po, 90 mg
TEST_READOUT: Tmax (h)
Number only, in h; omit the unit.

Ask: What Tmax value was documented for this molecule, CC(C)(C(=O)NCC(F)(F)C(F)(F)F)C(=O)N[C@@H]1C(=O)Nc2ccccc2-c2ccccc21 [RO4929097] ?
Reply: 4.3

###

TEST_METHOD_NOTES: clinical
CONDITION: human, in vivo, po, 45 mg
TEST_READOUT: half-life (h)
Field: numeric (h). Do not append units.

Ask: # input molecule: CC(C)(C(=O)NCC(F)(F)C(F)(F)F)C(=O)N[C@@H]1C(=O)Nc2ccccc2-c2ccccc21 ; wanted: its half-life
Reply: 23.1

###

TEST_METHOD_NOTES: clinical
CONDITION: human, in vivo, po, 90 mg
TEST_READOUT: AUC(0-t) (ng·h/mL)
Lab book: enter the figure in ng·h/mL, no units written.

Ask: So what's the measured AUC(0-t) for this one? CC(C)(C(=O)NCC(F)(F)C(F)(F)F)C(=O)N[C@@H]1C(=O)Nc2ccccc2-c2ccccc21
Reply: 21100

###

TEST_METHOD_NOTES: clinical
CONDITION: human, in vivo, po, 45 mg
TEST_READOUT: Cmax (ng/mL)
Please state the figure in ng/mL; there is no need to write the unit.

Ask: Fill in: Cmax of CC(C)(C(=O)NCC(F)(F)C(F)(F)F)C(=O)N[C@@H]1C(=O)Nc2ccccc2-c2ccccc21 is ___
Reply: 1110

###

TEST_METHOD_NOTES: clinical
CONDITION: human, in vivo, po, 30 mg
TEST_READOUT: Cmax (ng/mL)
Use ng/mL as the unit, but write only the number.

Ask: Value lookup for Cmax; key = CC(C)(C(=O)NCC(F)(F)C(F)(F)F)C(=O)N[C@@H]1C(=O)Nc2ccccc2-c2ccccc21
Reply: 1050

###

TEST_METHOD_NOTES: clinical
CONDITION: human, in vivo, po, 140 mg
TEST_READOUT: Cmax (ng/mL)
Provide only the numeric value, understood in ng/mL.

Ask: Dear colleague, I am looking for the recorded Cmax of the following molecule: CC(C)(C(=O)NCC(F)(F)C(F)(F)F)C(=O)N[C@@H]1C(=O)Nc2ccccc2-c2ccccc21
Reply: 1330

###

TEST_METHOD_NOTES: clinical
CONDITION: human, in vivo, po, 140 mg
TEST_READOUT: half-life (h)
# unit: h | format: bare number

Ask: // half-life lookup, key: CC(C)(C(=O)NCC(F)(F)C(F)(F)F)C(=O)N[C@@H]1C(=O)Nc2ccccc2-c2ccccc21 [RO4929097]
Reply: 33.4

###

TEST_METHOD_NOTES: clinical
CONDITION: human, in vivo, po, 45 mg
TEST_READOUT: AUC(0-t) (µg·h/mL)
Answer in µg·h/mL, number only, no unit symbol.

Ask: Entry under review: CC(C)(C(=O)NCC(F)(F)C(F)(F)F)C(=O)N[C@@H]1C(=O)Nc2ccccc2-c2ccccc21 [RO4929097] . Reported AUC(0-t)?
Reply: 10.4
